The reported measurements were obtained from the Immune Epitope Database (IEDB).

Below, each of the sequences is paired with its reported IC50 value.
- target: HLA-B*40:02
- assay method text: IEDB peptide-MHC binding, purified MHC/competitive/radioactivity; bounds were set here for any values at or beyond the usual limits of such assays
- run parameters: source organism: Plasmodium falciparum

Example entries and their recorded answers appear below.
| biopolymer sequence | observed result |
| --- | --- |
| DEVDLYLLM | 1020 nM |
| SENERGYYI | 227 nM |

Here's the next entry for you.
IC50 value, target or system HLA-B*40:02, for RENANQLVV : 20 nM

* * *

- target: HLA-B*44:02
- assay method text: IEDB peptide-MHC binding, purified MHC/competitive/radioactivity; bounds were set here for any values at or beyond the usual limits of such assays
- run parameters: source organism: Human immunodeficiency virus 1
This listing pairs sequences with measured IC50.
Please respond with the number in nM and leave the unit unwritten.

Here's what some known entries look like.
| biopolymer sequence | readout units | IC50 |
| --- | --- | --- |
| AENLWVTVY | nM | 66 |
| IEAEVIPA | nM | 859 |
| AENLYVTVF | nM | 39 |
| TERQANFL | nM | 9050 |
| NETPGIRYQY | nM | 75 |

For record WEFVNTPPL the listed IC50 is 72

Memo: QEILDLWVY , reported IC50: 264

* * *

- target: HLA-B*44:02
- assay method text: IEDB peptide-MHC binding, purified MHC/competitive/radioactivity; bounds were set here for any values at or beyond the usual limits of such assays
- run parameters: source organism: Plasmodium falciparum
Measured log10 IC50 accompanies every entry in the list below.
Quick note: numbers are log10 of IC50, with nM as the unit.

Here is how some sequences turned out for log10 IC50.
| biopolymer sequence | observed result |
| --- | --- |
| DEFKPIVQY | 1.08 |
| SENERGYYI | 2.18 |
| DEVDLYLLM | 2.03 |
| NELNYDNAGI | 2.02 |

response.value for RENANQLVV (field: log10 IC50) = 2.80

* * *

- target: HLA-B*40:02
- assay method text: IEDB peptide-MHC binding, purified MHC/competitive/radioactivity; bounds were set here for any values at or beyond the usual limits of such assays
- run parameters: source organism: Hepatitis C virus (isolate HCV-K3a/650)
measured parameter: pIC50
Worth noting: pIC50 values are minus log10 of concentrations stated in mol/L.

| biopolymer sequence | observed result |
| --- | --- |
| GEIPFYGKAI | 7.06 |

Note: attention shifts to another entry.
pIC50 of AEAALENLV , assay on HLA-B*40:02, is 6.97

* * *

Measured pKd values are reported for all entries that follow.
- target: HLA-B*45:01
- assay method text: IEDB peptide-MHC binding, purified MHC/competitive/radioactivity; filed as Kd, often an IC50 or EC50 that approximates it; bounds were set here for any values at or beyond the usual limits of such assays
- run parameters: source organism: Human immunodeficiency virus 1
Note on pKd: it is the negative log10 of concentration, concentration in mol/L.

Below, 4 sequences whose answers are already recorded.
| biopolymer sequence | pKd |
| --- | --- |
| NETPGIRYQY | 4.98 |
| QEILDLWVY | 5.20 |
| IEAEVIPA | 6.46 |
| TERQANFL | 5.01 |

For the next question, use this sequence.
Tested on HLA-B*45:01, the item WEFVNTPPL showed pKd equal to 5.28
